- target-entity: T1, human IL-4 (human, UniProt P05112 25-153, biotinylated in the receptor binding assay and on the Biacore chip)
- T1 construct: also called interleukin-4; biotinylated IL-4
- T1 sequence (looked up): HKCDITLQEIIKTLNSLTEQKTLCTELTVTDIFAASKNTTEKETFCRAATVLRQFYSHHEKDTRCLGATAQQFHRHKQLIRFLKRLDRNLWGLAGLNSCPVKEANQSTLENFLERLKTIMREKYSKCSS
- assay-summary: DOM9 RBA (IL-4 RBA)
# label = Fulfilled if IC50 < 5 nM else Not fulfilled

### Prompt Item DOM9-112 (other, VH dAb) VH: EVQLLESGGGLVQPGGSLRLSCAASGFTFRNYGMAWVRQAPGKGLEWVSWIDASGTETYYADSVKGRFTISRDNSKNTLYLQMNSLRAEDTAVYYCAKSLGRFDYWGQGTLVTVSS : IC50 beneath 5 nM, strictly?
### Response Fulfilled

### Prompt Try the binder DOM9-112-210-ASTKGPS-DOM10-275 (bispecific antibody, in-line fusion, from pDOM5) EVQLLESGGGLVQPGGSLRLSCAASGFTFRNFGMGWVRQAPGKGLEWVSWIISSGTETYYADSVKGRFTISRDNSKNTLYLQMNSLRAEDTAVYYCAKSLGRFDYWGQGTLVTVSSASTKGPSEVQLLESGGGLVQPGGSLRLSCAASGFTFDREEMDWVRQAPGKGLEWVSTISPSGRKTYYADSVKGRFTISRDNSKNTLYLQMNSLRAEDTAVYYCAKHGTGFDYWGQGTLVTVSS
### Response Not fulfilled

### Prompt Same read-out for DOM10-215-TVAAPS-DOM9-155-78 (bispecific antibody, in-line fusion, from pDOM5) DIQMTQSPSSLSASVGDRVTITCRASQNIFADLNWYQQKPGKAPKLLIYMGSRLQSGVPSRFSGSGSGTDFTLTISSLQPEDFATYYCQQDYKFPLTFGQGTKVEIKRTVAAPSDIQMTQSPSSLSASVGDRVTITCRASRHIGDWLHWYQQKPGKAPKLLIAWASTLDSGVPSRFSGSGSGTDFTLTISSLQPEDFATYYCLQEGWGPPTFGQGTKVEIKR ?
### Response Not fulfilled

### Prompt Check DOM9-112-210-ASTKGPS-DOM10-224 (bispecific antibody, in-line fusion, from pDOM5) EVQLLESGGGLVQPGGSLRLSCAASGFTFRNFGMGWVRQAPGKGLEWVSWIISSGTETYYADSVKGRFTISRDNSKNTLYLQMNSLRAEDTAVYYCAKSLGRFDYWGQGTLVTVSSASTKGPSDIQMTQSPSSLSASVGDRVTITCRASPNIAVDLAWYQQKPGKAPKLLIRGVSRLQSGVPSRFSGSGSGTDFTLTISSLQPEDFATYYCRQGAMGSYTFGQGTKVEIKR too.
### Response Fulfilled

### Prompt Input DOM9-112-210-ASTKGPS-DOM10-277 (bispecific antibody, in-line fusion, from pDOM5) EVQLLESGGGLVQPGGSLRLSCAASGFTFRNFGMGWVRQAPGKGLEWVSWIISSGTETYYADSVKGRFTISRDNSKNTLYLQMNSLRAEDTAVYYCAKSLGRFDYWGQGTLVTVSSASTKGPSEVQLLESGGGLVQPGGSLRLSCAASGFTFSSYEMDWVRQAPGKGLEWVSTISADGVTTYYADSVKGRFTISRDNSKNTLYLQMNSLRAEDTAVYYCAKAFDAFDYWGQGTLVTVSS
### Response Not fulfilled
